- TESTED_SYSTEM: glycogen phosphorylase (from rabbit muscle, Sigma P1261) (Oryctolagus cuniculus, UniProt P00489)
- Sequence (P00489 2-843 limits assumed): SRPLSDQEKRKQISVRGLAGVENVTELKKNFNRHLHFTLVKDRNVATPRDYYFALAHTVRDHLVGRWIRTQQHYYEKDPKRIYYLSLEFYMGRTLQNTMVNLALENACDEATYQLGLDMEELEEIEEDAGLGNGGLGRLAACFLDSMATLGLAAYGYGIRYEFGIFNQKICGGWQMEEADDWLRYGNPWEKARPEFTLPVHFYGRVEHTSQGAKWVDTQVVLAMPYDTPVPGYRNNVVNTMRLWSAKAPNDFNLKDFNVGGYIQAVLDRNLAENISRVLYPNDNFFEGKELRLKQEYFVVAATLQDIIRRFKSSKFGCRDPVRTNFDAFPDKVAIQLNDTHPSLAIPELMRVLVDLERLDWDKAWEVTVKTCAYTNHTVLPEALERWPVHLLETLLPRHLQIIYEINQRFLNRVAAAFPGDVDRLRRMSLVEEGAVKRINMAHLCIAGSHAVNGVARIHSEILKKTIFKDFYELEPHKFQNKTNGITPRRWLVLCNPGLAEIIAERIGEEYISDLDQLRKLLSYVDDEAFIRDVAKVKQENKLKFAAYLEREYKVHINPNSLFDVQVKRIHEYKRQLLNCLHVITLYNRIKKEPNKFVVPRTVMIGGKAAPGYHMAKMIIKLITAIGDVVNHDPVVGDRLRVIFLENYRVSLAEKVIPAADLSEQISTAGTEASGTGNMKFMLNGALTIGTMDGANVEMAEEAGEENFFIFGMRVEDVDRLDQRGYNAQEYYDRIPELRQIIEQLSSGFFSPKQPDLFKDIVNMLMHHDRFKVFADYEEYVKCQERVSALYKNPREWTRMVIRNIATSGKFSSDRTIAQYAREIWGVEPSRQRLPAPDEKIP
pIC50: −log10 of the molar value.
Decide by pIC50: equal to or exceeding 6 means Met, less means Not met.

Exam item: decide whether the reported pIC50 for "Cn1cccc1C(=O)Nc1ccc(Nc2nc3ccccc3n(C)c2=O)cc1" is at least 6.
Not met

Exam item: decide whether the reported pIC50 for "Cn1c(=O)c(Nc2ccc(-n3ccnc3)cc2)nc2ccccc21" is at least 6.
Not met

Exam item: decide whether the reported pIC50 for "Cn1c(=O)c(Nc2ccc(NC(=O)c3ccco3)cc2)nc2ccccc21" is at least 6.
Not met

Exam item: decide whether the reported pIC50 for "CCn1c(=O)c(Nc2ccc(C(=O)Nc3cc[nH]n3)cc2)nc2ccccc21" is at least 6.
Met

Exam item: decide whether the reported pIC50 for "O=C(Nc1ccon1)c1ccc(Nc2nc3ccccc3n(CCN3CCOCC3)c2=O)cc1" is at least 6.
Met

Exam item: decide whether the reported pIC50 for "CCn1c(=O)c(Nc2ccc(C(=O)Nc3ccon3)cc2)nc2ccccc21" is at least 6.
Met
